EXPERIMENT_NOTES: Decomposition / Cope elimination half-life (HPLC)
Format: physicochemical
EXPERIMENTAL_PARAMETERS: liposome solutions
From the text: The lack of radical-trapping activity of allicin and petivericin obvious from FIGS. 1A and 1B could be due to their partitioning to the aqueous phase, where Cope elimination to produce the reactive sulfenic acids 3 and 4, respectively, is slowed dramatically by H-bonding. […]
MEASUREMENT_TYPE: half-life

Query (compound): [O-][S+](Cc1ccccc1)SCc1ccccc1 (stereo not shown) [BPT, S-Benzyl phenylmethane thiosulfinate] ; field requested: half-life ~1.5 h
